B1: TRIM9 (parent)
chain: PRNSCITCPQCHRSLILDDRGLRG

# Variants of: B1
# experiment: protein stability index of a GFP-peptide fusion (GPS, HEK-293T) (PSI 1-6); higher = more stable;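 further: lentivirally expressed fusions sorted by FACS into six bins by GFP to DsRed ratio, PSI derived from sequencing read proportions per bin multiplied by bin number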
# conditionDetails: c terminus: a fixed tail appended

{"mutationSpec": "L17D", "protein stability index": 2.48}
{"mutationSpec": "I16T", "protein stability index": 1.99}
{"mutationSpec": "L15V", "protein stability index": 2.24}
{"mutationSpec": "L17V", "protein stability index": 2.19}
{"mutationSpec": "P9G", "protein stability index": 1.72}
{"mutationSpec": "G21W", "protein stability index": 2.06}
{"mutationSpec": "D19E", "protein stability index": 1.82}
{"mutationSpec": "I6H", "protein stability index": 2.46}
{"mutationSpec": "D18P", "protein stability index": 1.49}
{"mutationSpec": "D19K", "protein stability index": 2.05}
{"mutationSpec": "Q10F", "protein stability index": 3}
{"mutationSpec": "R2I", "protein stability index": 2.64}
{"mutationSpec": "I16G", "protein stability index": 1.76}
{"mutationSpec": "Q10V", "protein stability index": 2.29}
{"mutationSpec": "R20V", "protein stability index": 1.82}
{"mutationSpec": "C11F", "protein stability index": 2.38}
{"mutationSpec": "L22C", "protein stability index": 2.32}
{"mutationSpec": "C8I", "protein stability index": 2.38}
{"mutationSpec": "C5F", "protein stability index": 2.08}
{"mutationSpec": "D19H", "protein stability index": 1.9}
{"mutationSpec": "D18L", "protein stability index": 1.53}
{"mutationSpec": "G21D", "protein stability index": 2.07}
{"mutationSpec": "N3R", "protein stability index": 2.03}
{"mutationSpec": "R23E", "protein stability index": 3.21}
{"mutationSpec": "P1G", "protein stability index": 1.71}
{"mutationSpec": "G21T", "protein stability index": 1.57}
{"mutationSpec": "C5E", "protein stability index": 2.67}
{"mutationSpec": "I16K", "protein stability index": 2.68}
{"mutationSpec": "N3L", "protein stability index": 2.52}
{"mutationSpec": "R13T", "protein stability index": 3.47}
{"mutationSpec": "D18I", "protein stability index": 1.53}
{"mutationSpec": "R20A", "protein stability index": 1.98}
{"mutationSpec": "Q10S", "protein stability index": 2.46}
{"mutationSpec": "P1M", "protein stability index": 1.76}
{"mutationSpec": "R2D", "protein stability index": 2.34}
{"mutationSpec": "T7S", "protein stability index": 2.48}
{"mutationSpec": "C8W", "protein stability index": 2.89}
{"mutationSpec": "R2M", "protein stability index": 2.16}
{"mutationSpec": "L22F", "protein stability index": 1.91}
{"mutationSpec": "C5Y", "protein stability index": 1.87}
